Where do these numbers come from? They come from patent US10759803B2.

System: Caco-2 monolayer
Test: Caco-2 monolayer permeability screen
Conditions: table of derivatives
reported.metric: RE

Known results for molecules:
Kindly note the recorded RE for Cn1c(S)nc2c1c(=O)n(Cc1ccccc1)c(=O)n2C [Compound 38D-22] , which is 3.0

Kindly note the recorded RE for Cn1c(=O)c2c(nc(S)n2C)n(C)c1=O [Compound 38D-16] , which is 3.3

Kindly note the recorded RE for Cn1c(=O)[nH]c(=O)c2c1nc(S)n2CC(O)COc1ccc(Cl)cc1 (stereo not shown) [Compound 38] , which is 18.2

Attention now turns to another entry.
Kindly note the recorded RE for CNC(=C[N+](=O)[O-])NCCSCc1ccc(CN(C)C)o1 [Ranitidine, reference compound] , which is 8.1

* * *

Provide the recorded CYP2C9 inhibition for the entries that follow.
Target: CYP2C9 (Homo sapiens, UniProt P11712)
Sequence (P11712 whole entry): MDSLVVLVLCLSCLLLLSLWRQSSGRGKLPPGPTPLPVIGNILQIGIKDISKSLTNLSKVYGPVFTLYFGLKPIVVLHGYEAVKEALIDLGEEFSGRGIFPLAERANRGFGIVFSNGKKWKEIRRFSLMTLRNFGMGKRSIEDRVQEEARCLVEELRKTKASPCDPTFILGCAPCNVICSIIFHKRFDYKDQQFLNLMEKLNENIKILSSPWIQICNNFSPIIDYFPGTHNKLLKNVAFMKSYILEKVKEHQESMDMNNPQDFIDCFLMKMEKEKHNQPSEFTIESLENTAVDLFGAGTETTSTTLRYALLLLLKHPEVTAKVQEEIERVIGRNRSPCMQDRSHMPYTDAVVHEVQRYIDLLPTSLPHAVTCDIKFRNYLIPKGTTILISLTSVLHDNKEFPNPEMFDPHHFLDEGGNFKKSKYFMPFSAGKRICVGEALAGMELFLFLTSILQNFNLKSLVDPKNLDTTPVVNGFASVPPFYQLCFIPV
Experiment: CYP inhibition screening, CYP2C9
Assay type: in vitro ADME
Settings: 10 μM
Give bare numbers, in %.

Kindly note the recorded CYP2C9 inhibition for Nc1ccc(N2CCOCC2)c2nonc12 , which is 5.6

Below is a list of compounds. For each, state its recorded CYP2C9 inhibition.
1. Cn1c(=O)[nH]c(=O)c2c1nc(S)n2CC(O)COc1ccc(Cl)cc1 (centres unmarked)
2. CCN(CC)c1ccc(CN2CCc3nc(C)[nH]c(=O)c3C2)c(OC)c1
3. Cc1cccc(NCc2ccc(O)c3ncccc23)c1C

*A*
[17.1, 7.9, "−2.7"]

Kindly note the recorded CYP2C9 inhibition for COc1ccc(N2CCN(C(c3ccc(N(C)C)cc3)c3nnnn3C(C)(C)C)CC2)cc1 (centres unmarked) , which is 69.2

* * *

Molecular target: CYP1A2 (Homo sapiens)
Sequence (P05177 whole entry): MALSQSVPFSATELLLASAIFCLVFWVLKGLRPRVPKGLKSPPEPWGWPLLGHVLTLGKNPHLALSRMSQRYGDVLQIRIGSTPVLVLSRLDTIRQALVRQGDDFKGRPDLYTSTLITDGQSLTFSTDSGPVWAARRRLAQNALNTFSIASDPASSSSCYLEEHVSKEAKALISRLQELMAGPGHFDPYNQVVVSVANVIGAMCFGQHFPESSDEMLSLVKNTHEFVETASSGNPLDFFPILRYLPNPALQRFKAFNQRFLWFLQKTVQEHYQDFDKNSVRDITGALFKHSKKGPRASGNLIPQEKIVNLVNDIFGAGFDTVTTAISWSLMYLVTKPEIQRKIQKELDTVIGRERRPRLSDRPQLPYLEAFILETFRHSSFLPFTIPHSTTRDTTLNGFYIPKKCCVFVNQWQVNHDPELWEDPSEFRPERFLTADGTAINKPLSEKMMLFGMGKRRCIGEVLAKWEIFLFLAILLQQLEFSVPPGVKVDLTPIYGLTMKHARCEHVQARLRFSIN
Experiment: CYP inhibition screening, CYP1A2
Assay type: in vitro ADME
Settings: 10 μM
Provide the recorded CYP1A2 inhibition for the entries that follow.
Answers are plain numbers, in %.

Known results for compounds:
Kindly note the recorded CYP1A2 inhibition for CCN(CC)c1ccc(CN2CCc3nc(C)[nH]c(=O)c3C2)c(OC)c1 , which is 22.2

Kindly note the recorded CYP1A2 inhibition for Cn1c(=O)[nH]c(=O)c2c1nc(S)n2CC(O)COc1ccc(Cl)cc1 (centres unmarked) , which is 10.5

Kindly note the recorded CYP1A2 inhibition for COc1ccc(N2CCN(C(c3ccc(N(C)C)cc3)c3nnnn3C(C)(C)C)CC2)cc1 (centres unmarked) , which is 10.3

Kindly note the recorded CYP1A2 inhibition for Nc1ccc(N2CCOCC2)c2nonc12 , which is 37.0

Attention now turns to another entry.
Kindly note the recorded CYP1A2 inhibition for Cc1cccc(NCc2ccc(O)c3ncccc23)c1C , which is 44.5

* * *

Target: UniProt:P08684
Sequence (P08684 whole entry): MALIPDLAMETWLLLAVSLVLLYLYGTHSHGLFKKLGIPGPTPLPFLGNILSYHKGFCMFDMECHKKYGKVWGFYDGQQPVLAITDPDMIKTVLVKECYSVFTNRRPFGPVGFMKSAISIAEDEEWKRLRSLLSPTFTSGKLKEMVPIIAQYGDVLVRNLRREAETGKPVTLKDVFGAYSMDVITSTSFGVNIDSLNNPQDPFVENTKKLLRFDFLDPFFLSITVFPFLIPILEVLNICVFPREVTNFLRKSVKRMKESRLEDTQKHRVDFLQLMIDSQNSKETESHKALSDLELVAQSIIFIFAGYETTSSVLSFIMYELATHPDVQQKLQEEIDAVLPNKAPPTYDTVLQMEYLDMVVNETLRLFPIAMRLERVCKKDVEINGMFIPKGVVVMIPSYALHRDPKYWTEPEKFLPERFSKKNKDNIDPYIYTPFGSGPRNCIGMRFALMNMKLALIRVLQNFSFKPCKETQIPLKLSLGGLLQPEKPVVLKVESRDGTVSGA
Experiment: CYP inhibition screening, CYP3A4-Midazolam
Assay type: in vitro ADME
Details: 10 μM
reported.metric: CYP3A4-Midazolam inhibition (%)
Numbers only, in %.

Known results for compounds:
Kindly note the recorded CYP3A4-Midazolam inhibition for CCN(CC)c1ccc(CN2CCc3nc(C)[nH]c(=O)c3C2)c(OC)c1 [Compound 64] , which is 10.1

Kindly note the recorded CYP3A4-Midazolam inhibition for Cn1c(=O)[nH]c(=O)c2c1nc(S)n2CC(O)COc1ccc(Cl)cc1 (centres unmarked) [Compound 38] , which is 10.4

Kindly note the recorded CYP3A4-Midazolam inhibition for COc1ccc(N2CCN(C(c3ccc(N(C)C)cc3)c3nnnn3C(C)(C)C)CC2)cc1 (centres unmarked) [Compound 31] , which is 18.1

Kindly note the recorded CYP3A4-Midazolam inhibition for Nc1ccc(N2CCOCC2)c2nonc12 [Compound 11] , which is 8.0

Attention now turns to another entry.
Kindly note the recorded CYP3A4-Midazolam inhibition for Cc1cccc(NCc2ccc(O)c3ncccc23)c1C [Compound 12] , which is −2.5
